B1: KLHDC10 (parent)
chain: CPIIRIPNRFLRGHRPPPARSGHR

# Variants of: B1
# TEST_DETAILS: protein stability index of a GFP-peptide fusion (GPS, HEK-293T) (PSI 1-6); higher = more stable;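 note: lentivirally expressed fusions sorted by FACS into six bins by GFP to DsRed ratio, PSI derived from sequencing read proportions per bin multiplied by bin number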
# RECORDED_CONDITIONS: c terminus: a fixed tail appended
Reported protein stability index by item:

| VARIANT_LABEL | protein stability index |
| --- | --- |
| R24K | 1.29 |
| I3K | 2.81 |
| L11K | 3.08 |
| P17N | 2.2 |
| H23I | 1.82 |
| I3Y | 1.6 |
| P18H | 2.37 |
| R5A | 3.57 |
| C1R | 3.57 |
| F10Y | 1.8 |
| S21L | 1.97 |
| P7G | 3.71 |
| R12H | 2.69 |
| F10L | 2.48 |
| I4G | 3.77 |
| R20V | 2.62 |
| G13A | 2.21 |
| R12L | 2.25 |
| R20C | 1.48 |
| A19W | 1.69 |
| P16R | 1.2 |

Data provenance is the supplement of paper PMC10567573.
